protocol.text: qHTS Assay for Spectroscopic Profiling in A350 Spectral Region
measurement.setup: Compound autofluorescence, 340/450 nm, Alexa 350 dye-equivalents
Out of some 59,000 compounds screened, about 6,500 (11%) were called active. Another 15% or so got no clear call; they are omitted. Rule as the data show it: active = max dye-equivalent concentration above about 10 nM; inconclusive = mostly about 1.1 nM to 9.6 nM; inactive = weaker than that. For the sample, actives were picked, then their nearest neighbours and some compounds at random.
Hi! Could you answer with just one of these? active, inactive

> print(dat)
                                   molecule  discrete.label
1  C#CCN1C(=O)C(O)(CC(=O)c2cc(OC)ccc2OC)c2ccccc21 (centres undefined)          active
2         CCNc1ncc2ncc(=O)n(CCc3ccccc3)c2n1          active
3  COc1cccc(Cn2c(=O)c(CCc3ccccc3)nc3cnc(N(C)C)nc32)c1          active
4  CSCCC(NC(=O)C1CCC(C)CC1)C(=O)NCc1ccco1 (centres undefined)        inactive
5  O=C(CCn1c(=S)[nH]c2ccccc2c1=O)NCCCN1CCCC1=O        inactive

Kindly review the next molecule as well.
Query: recorded result category for Cc1ccc2c(CSc3nncs3)cc(=O)oc2c1 in this test inactive
